assayTarget: HLA DRB1 *0101 (Homo sapiens, UniProt P01903+P01911, A100R/D57E/F55L/F60I/F76Y/I96L/L162R/M171V/P40L/Q125E/R42F/V115G/Y59C)
method: IC50nM to purified HLA | DRB1 *0101
Where no end group is shown, it is not given here.
Record form. Attribute: IC50. Fill in for each entry.
One number for each entry, in nM.

Known results for sequences:
INSERT INTO results (seq, obsvalue) VALUES
  ('AAAHFVAAWTLKAEA [SEQ ID NO: 36]', 5.1),
  ('AAADFVAAWTLHAAA [SEQ ID NO: 41]', 4.9),
  ('AAAHFVAAWTLKADA [SEQ ID NO: 31]', 5.1);

Here is the next item to consider.
*Q* In one line, give reported IC50 of the entry AAAKFVAAWTLKADA [SEQ ID NO: 30] .
*A* 5

---

assayTarget: HLA DRB1 *1501 (Homo sapiens, UniProt P01903+P01911)
method: IC50nM to purified HLA | DRB1 *1501
Where no end group is shown, it is not given here.
Classify: met when IC50 is strictly less than 10 nM; not met when IC50 is not.

Below are worked cases with known answers.
INSERT INTO measurements (seq, assaytarget, categorylabel) VALUES
  ('AAANFVAAYTLKAEA [SEQ ID NO: 60]', 'HLA DRB1 *1501 (Homo sapiens, UniProt P01903+P01911)', 'not met'),
  ('AAANFVAANTLKADA [SEQ ID NO: 58]', 'HLA DRB1 *1501 (Homo sapiens, UniProt P01903+P01911)', 'not met'),
  ('AAAQFVAANTLHAAA [SEQ ID NO: 67]', 'HLA DRB1 *1501 (Homo sapiens, UniProt P01903+P01911)', 'not met'),
  ('AAAIFVAAWTLHAAA [SEQ ID NO: 69]', 'HLA DRB1 *1501 (Homo sapiens, UniProt P01903+P01911)', 'met'),
  ('AAANFVAANTLHAAA [SEQ ID NO: 54]', 'HLA DRB1 *1501 (Homo sapiens, UniProt P01903+P01911)', 'not met');

*Q* Lab note: IC50 threshold 10 nM. Does this sequence come in strictly under it? AAAIFVAAYTLHAAA [SEQ ID NO: 70]
*A* met

*Q* Please check: IC50 for AAAIFVAAWTLKAAA [SEQ ID NO: 68] , strictly under 10 nM or not?
*A* met

*Q* Field: below-cutoff. Rule: recorded IC50 strictly less than 10 nM. Subject: AAAQFVAAWTLHAAA [SEQ ID NO: 64]
*A* not met

*Q* Hi there! Is IC50 for AAAQFVAAYTLHAAA [SEQ ID NO: 65] below 10 nM, do you know?
*A* met

---

Please go through the items and note down their IC50.
assayTarget: HLA DRB1 *0405 (Homo sapiens, UniProt P01903+P01911, A100R/A169T/D86S/F76Y/I96L/K127E/L162R/M171V/N62H/P40V/Q125Y/R42H/S133A/S149N/S66Y/V115G/V209L/W38E)
method: IC50nM to purified HLA | DRB1 *0405
Where no end group is shown, it is not given here.
Report the figure along with its unit, number first.

Recorded results for 3 sequences are shown here.
INSERT INTO measurements (seq, obsvalue) VALUES
  ('AAADFVAAWTLKAAA [SEQ ID NO: 40]', '30 nM'),
  ('AAADFVAAYTLHAAA [SEQ ID NO: 42]', '21 nM'),
  ('AAAEFVAAYTLHAAA [SEQ ID NO: 47]', '17 nM');

// next item, IC50 requested
*Q* Return reported IC50. Input sequence: AAAHFVAANTLKAEA [SEQ ID NO: 39]
*A* 36 nM

---

assayTarget: purified HLA DRB1 *0802 (Homo sapiens, UniProt P01903+P01911, A100R/A103L/A169T/F76Y/H45Y/I96F/K41T/L162R/M171V/P40S/Q125H/Q178H/Q39Y/Q99D/R218S/R42G/S66Y/V115G/W38E)
method: IC50nM to purified HLA | DRB1 *0802
Where no end group is shown, it is not given here.
measurementName: IC50 (nM)
Answers are plain numbers, in nM.

Each sequence below has a reported value. Please supply its IC50.
1. AAAKFVAAWTLHAAA [SEQ ID NO: 6]
2. AAAFFVAAYTLHAAA [SEQ ID NO: 13]
3. AAAFFVAAYTLKADA [SEQ ID NO: 17]
4. AAAYFVAAWTLKAAA [SEQ ID NO: 20]

*A*
7.6
7.4
6.7
6.1

---

assayTarget: HLA DRB1 *0405 (Homo sapiens, UniProt P01903+P01911, A100R/A169T/D86S/F76Y/I96L/K127E/L162R/M171V/N62H/P40V/Q125Y/R42H/S133A/S149N/S66Y/V115G/V209L/W38E)
method: IC50nM to purified HLA | DRB1 *0405
Where no end group is shown, it is not given here.
Would you mind telling me the reported IC50 of each entry?
Numbers only, in µM.

INSERT INTO assay_data (seq, scaleunit, obsvalue) VALUES
  ('AAANFVAAWTLKAEA [SEQ ID NO: 59]', 'µM', 0.0038),
  ('AAAQFVAAYTLHAAA [SEQ ID NO: 65]', 'µM', 0.022);

// next entry
*Q* Return IC50 for the following sequence: AAAIFVAAFTLHAAA [SEQ ID NO: 71]
*A* 0.014

---

assayTarget: purified HLA DRB4 *0101 (Homo sapiens, UniProt P01903+P13762, G164S)
Sequence (P01903 26-254 limits assumed): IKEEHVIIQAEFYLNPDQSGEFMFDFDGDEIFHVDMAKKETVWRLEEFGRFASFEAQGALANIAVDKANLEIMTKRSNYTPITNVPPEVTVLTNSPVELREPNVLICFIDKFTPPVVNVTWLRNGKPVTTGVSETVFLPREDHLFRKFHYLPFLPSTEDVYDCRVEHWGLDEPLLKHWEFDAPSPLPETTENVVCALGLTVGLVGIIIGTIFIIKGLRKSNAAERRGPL
Sequence (P13762 whole entry G164S): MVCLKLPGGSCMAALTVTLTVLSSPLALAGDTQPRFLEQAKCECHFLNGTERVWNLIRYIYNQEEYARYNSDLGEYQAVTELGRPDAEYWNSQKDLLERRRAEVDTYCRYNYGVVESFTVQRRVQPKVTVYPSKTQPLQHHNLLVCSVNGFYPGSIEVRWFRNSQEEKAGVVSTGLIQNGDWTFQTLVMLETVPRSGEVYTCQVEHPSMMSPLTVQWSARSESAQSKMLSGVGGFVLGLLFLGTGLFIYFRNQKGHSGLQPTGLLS
method: IC50nM to purified HLA | DRB4 *0101
Where no end group is shown, it is not given here.
measurementName: pIC50
Answers are plain numbers, as −log10 of the molar value.

// worked examples, pIC50 included
INSERT INTO measurements (seq, assaytarget, obsvalue) VALUES
  ('AAAWFVAAWTLHAAA [SEQ ID NO: 7]', 'purified HLA DRB4 *0101 (Homo sapiens, UniProt P01903+P13762, G164S)', 6.35),
  ('AAAYFVAAWTLKAAA [SEQ ID NO: 20]', 'purified HLA DRB4 *0101 (Homo sapiens, UniProt P01903+P13762, G164S)', 6.54),
  ('AAAFFVAAFTLHAAA [SEQ ID NO: 14]', 'purified HLA DRB4 *0101 (Homo sapiens, UniProt P01903+P13762, G164S)', 6.89),
  ('AAAFFVAANTLKADA [SEQ ID NO: 19]', 'purified HLA DRB4 *0101 (Homo sapiens, UniProt P01903+P13762, G164S)', 5.26),
  ('AAAWFVAANTLHAAA [SEQ ID NO: 10]', 'purified HLA DRB4 *0101 (Homo sapiens, UniProt P01903+P13762, G164S)', 6.22);

Attention now shifts to the item below.
*Q* // fetch pIC50; item: AAAYFVAANTLHAAA [SEQ ID NO: 24] ; system: purified HLA DRB4 *0101 (Homo sapiens, UniProt P01903+P13762, G164S)
*A* 6.15

---

assayTarget: HLA DRB5 *0101 (Homo sapiens, UniProt P01903+Q30154)
method: IC50nM to purified HLA | DRB5 *0101
Where no end group is shown, it is not given here.
What pIC50 was measured for each of the following?
Numbers only, as −log10 of the molar value.

INSERT INTO measurements (seq, measurementname, obsvalue) VALUES
  ('AAAHFVAAFTLKAEA [SEQ ID NO: 38]', 'pIC50', 7.72);

Dear colleague, could you send me pIC50 for each of the items below? Thanks.
1. AAAHFVAANTLHAAA [SEQ ID NO: 29]
2. AAAHFVAANTLKADA [SEQ ID NO: 34]

*A*
7.48
7.74

---

For each record, write down the corresponding pIC50.
assayTarget: HLA DRB1 *0701 (Homo sapiens, UniProt P01903+P01911, A100R/A102G/A103Q/D57E/D86V/E43K/F76Y/K127E/L162R/M171V/P40G/Q125H/Q99D/R33Q/R42Y/R54Q/S133A/S66F/T210M/V115G/Y107V/Y59L/Y89S)
method: IC50nM to purified HLA | DRB1 *0701
Where no end group is shown, it is not given here.
Numbers only, as −log10 of the molar value.

Observe how each entry below is paired with its result.
INSERT INTO assay_data (seq, obsvalue) VALUES
  ('AAADFVAANTLHAAA [SEQ ID NO: 44]', 6.71),
  ('AAANFVAAYTLHAAA [SEQ ID NO: 52]', 7.17),
  ('AAADFVAAWTLKAAA [SEQ ID NO: 40]', 6.71),
  ('AAAHFVAAFTLKADA [SEQ ID NO: 33]', 7.08),
  ('AAADFVAAFTLHAAA [SEQ ID NO: 43]', 6.65),
  ('AAAHFVAANTLKADA [SEQ ID NO: 34]', 7.06),
  ('AAAEFVAAFTLHAAA [SEQ ID NO: 48]', 6.85),
  ('AAAHFVAANTLKAEA [SEQ ID NO: 39]', 7.08),
  ('AAAEFVAAYTLHAAA [SEQ ID NO: 47]', 6.79);

Would you kindly look at the next entry?
*Q* Could you please provide reported pIC50 for AAAHFVAANTLHAAA [SEQ ID NO: 29] ? Thanks!
*A* 7.12
